Provenance of the data: patent US20190284262A1

Exercise: state measured Median:FITC-A for each of the binders provided.
biological target: T1, Foxp3-7 peptide/HLA-A*02:01 complex on the cell surface (human); assay: flow cytometry, phage on T2 + Foxp3-7 peptide; secondary only 116, unstained 93.8
T1 construct: also called Foxp3-7/HLA-A2 complex

{"binder": "EXT017-9 scFv phage clone (scFv, also called phage clone #9) scFv: QSALTQPASASGSPGQSVTISCTGTSSDVGGYNYVSWYQQHPGKAPKLMIYEVSKRPSGVPDRFSGSKSGNTASLTVSGLQAEDEADYYCSSYAGSNNVVFGGGTKLTVLGSRGGGGSGGGGSGGGGSLEMAEVQLVQSGAEVKKPGASVKISCKASRYTFTNYYIHWVRQAPGQGLEWMGIINPSGGSTTYPQNFQGRLTMTRDTSTSTVYMELSSLRSEDTAMYYCARGWSGYDPGDFWGQGTLVTVSSTSGQAGQHHHHHHGAYPYDVPDYAS", "result": 287}

Kindly review the next binder as well.
// field: Median:FITC-A; key: EXT017-28 scFv phage clone (scFv, full-length scFv with His+HA tags; also called EXT017-28 phage; phage clone #28) scFv: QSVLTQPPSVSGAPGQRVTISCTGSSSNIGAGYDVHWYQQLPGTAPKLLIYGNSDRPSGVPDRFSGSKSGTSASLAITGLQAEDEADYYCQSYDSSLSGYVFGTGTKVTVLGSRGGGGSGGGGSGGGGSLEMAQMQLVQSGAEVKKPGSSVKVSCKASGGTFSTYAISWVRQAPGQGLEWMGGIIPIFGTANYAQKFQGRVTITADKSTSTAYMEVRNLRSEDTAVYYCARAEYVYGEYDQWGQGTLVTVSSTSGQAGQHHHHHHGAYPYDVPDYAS ; value = 873
